Tested on: hiPSCs differentiating into cardiomyocyte-like cells
TEST_DETAILS: ReproTracker cardiomyocyte differentiation assay
OBSERVABLE: ReproTracker results Cardiomyocyte-like cells

Record excerpt, results attached:
{"COMPOUND": "O=C1NS(=O)(=O)c2ccccc21", "ASSAY_TARGET": "hiPSCs differentiating into cardiomyocyte-like cells", "VALUE_REPORTED": "Negative"}
{"COMPOUND": "COc1ccccc1Oc1c(NS(=O)(=O)c2ccc(C(C)(C)C)cc2)nc(-c2ncccn2)nc1OCCO", "ASSAY_TARGET": "hiPSCs differentiating into cardiomyocyte-like cells", "VALUE_REPORTED": "Positive"}
{"COMPOUND": "O=c1[nH]cc(F)c(=O)[nH]1", "ASSAY_TARGET": "hiPSCs differentiating into cardiomyocyte-like cells", "VALUE_REPORTED": "Negative"}
{"COMPOUND": "NC(=O)N1c2ccccc2C=Cc2ccccc21 [Carbamazepine]", "ASSAY_TARGET": "hiPSCs differentiating into cardiomyocyte-like cells", "VALUE_REPORTED": "Positive"}

Consider the record given below.
Query block: Form field: reported ReproTracker results Cardiomyocyte-like cells of O=C(O)COCCN1CCN(C(c2ccccc2)c2ccc(Cl)cc2)CC1 (stereo not drawn)
Result block: Negative

Reference for the values: paper PMC12508576
